- target-or-system: wild-type (WT) human TRPM7 (Homo sapiens, UniProt Q96QT4)
- Construct: expressed in transfected cells; host or cells: HEK293T
- Sequence (Q96QT4 whole entry): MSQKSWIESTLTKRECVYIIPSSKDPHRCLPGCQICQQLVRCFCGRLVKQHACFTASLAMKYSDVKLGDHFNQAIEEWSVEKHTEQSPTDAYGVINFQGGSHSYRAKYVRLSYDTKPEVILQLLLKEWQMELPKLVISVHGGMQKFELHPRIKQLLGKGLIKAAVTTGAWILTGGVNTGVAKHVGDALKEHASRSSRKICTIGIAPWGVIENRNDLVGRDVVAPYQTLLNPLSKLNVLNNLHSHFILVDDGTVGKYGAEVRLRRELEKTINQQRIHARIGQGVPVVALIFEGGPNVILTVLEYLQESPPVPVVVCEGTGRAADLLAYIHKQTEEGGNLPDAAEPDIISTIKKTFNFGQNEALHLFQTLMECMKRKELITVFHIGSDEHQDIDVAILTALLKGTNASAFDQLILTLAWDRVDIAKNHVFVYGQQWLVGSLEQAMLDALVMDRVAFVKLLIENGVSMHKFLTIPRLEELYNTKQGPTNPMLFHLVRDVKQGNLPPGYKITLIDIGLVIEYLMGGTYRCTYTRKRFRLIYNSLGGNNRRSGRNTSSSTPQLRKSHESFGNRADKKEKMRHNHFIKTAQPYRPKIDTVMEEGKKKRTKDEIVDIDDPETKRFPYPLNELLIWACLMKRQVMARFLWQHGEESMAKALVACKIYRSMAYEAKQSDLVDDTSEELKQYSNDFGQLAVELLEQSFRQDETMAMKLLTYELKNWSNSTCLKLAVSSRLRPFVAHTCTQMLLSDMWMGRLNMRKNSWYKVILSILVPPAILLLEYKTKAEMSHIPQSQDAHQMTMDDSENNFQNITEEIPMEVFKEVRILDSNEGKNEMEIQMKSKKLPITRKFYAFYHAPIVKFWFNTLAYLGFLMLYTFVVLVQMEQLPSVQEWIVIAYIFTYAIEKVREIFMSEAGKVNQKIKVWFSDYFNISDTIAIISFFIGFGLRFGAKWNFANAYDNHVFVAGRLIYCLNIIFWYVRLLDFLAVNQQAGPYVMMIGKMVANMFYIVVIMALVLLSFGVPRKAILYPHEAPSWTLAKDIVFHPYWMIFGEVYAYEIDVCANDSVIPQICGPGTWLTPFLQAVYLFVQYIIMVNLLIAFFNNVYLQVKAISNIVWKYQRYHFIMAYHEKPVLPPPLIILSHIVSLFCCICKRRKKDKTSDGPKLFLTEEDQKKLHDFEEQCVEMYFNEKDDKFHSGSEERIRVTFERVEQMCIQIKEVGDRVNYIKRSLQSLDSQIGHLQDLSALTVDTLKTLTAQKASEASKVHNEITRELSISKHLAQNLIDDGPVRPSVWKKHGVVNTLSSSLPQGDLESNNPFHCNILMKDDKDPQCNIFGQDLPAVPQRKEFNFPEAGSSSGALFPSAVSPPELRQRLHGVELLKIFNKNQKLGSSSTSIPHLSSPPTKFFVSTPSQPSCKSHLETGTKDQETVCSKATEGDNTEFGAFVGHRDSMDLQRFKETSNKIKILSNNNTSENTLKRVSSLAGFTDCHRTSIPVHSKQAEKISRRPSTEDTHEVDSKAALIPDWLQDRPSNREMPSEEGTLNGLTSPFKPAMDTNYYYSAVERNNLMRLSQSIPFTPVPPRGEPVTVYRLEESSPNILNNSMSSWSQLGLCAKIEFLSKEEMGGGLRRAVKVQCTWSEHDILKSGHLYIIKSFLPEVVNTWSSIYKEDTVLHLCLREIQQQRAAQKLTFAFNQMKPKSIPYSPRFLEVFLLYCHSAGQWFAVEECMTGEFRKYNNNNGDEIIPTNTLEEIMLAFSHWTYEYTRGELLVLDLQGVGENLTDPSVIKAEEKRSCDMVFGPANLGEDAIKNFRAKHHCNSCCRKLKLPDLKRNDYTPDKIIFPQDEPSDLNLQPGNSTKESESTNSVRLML
- experimental-details: Whole-cell recording of recombinant TRPM7 currents in transfected HEK293T cells (voltage ramps)
- Format: cell-based
- conditions-used: -100 mV; divalent free solution; read-out: IC50, inhibition of TRPM7 current
readout-label: pIC50
Please express pIC50 as -log10 of the molar concentration.

Inquiry: Using the record for `N=C(N)c1ccc2cc(OC(=O)c3ccc(N=C(N)N)cc3)ccc2c1` , report its pIC50.
Reply text: 4.82

---

- target-or-system: TRPM7 current in cultured mouse hippocampal neurons (Mus musculus, UniProt Q923J1)
- Construct: supports the substantial involvement of endogenous TRPM7 channels in the responses of neurons; endogenous in cells
- Sequence (Q923J1 whole entry): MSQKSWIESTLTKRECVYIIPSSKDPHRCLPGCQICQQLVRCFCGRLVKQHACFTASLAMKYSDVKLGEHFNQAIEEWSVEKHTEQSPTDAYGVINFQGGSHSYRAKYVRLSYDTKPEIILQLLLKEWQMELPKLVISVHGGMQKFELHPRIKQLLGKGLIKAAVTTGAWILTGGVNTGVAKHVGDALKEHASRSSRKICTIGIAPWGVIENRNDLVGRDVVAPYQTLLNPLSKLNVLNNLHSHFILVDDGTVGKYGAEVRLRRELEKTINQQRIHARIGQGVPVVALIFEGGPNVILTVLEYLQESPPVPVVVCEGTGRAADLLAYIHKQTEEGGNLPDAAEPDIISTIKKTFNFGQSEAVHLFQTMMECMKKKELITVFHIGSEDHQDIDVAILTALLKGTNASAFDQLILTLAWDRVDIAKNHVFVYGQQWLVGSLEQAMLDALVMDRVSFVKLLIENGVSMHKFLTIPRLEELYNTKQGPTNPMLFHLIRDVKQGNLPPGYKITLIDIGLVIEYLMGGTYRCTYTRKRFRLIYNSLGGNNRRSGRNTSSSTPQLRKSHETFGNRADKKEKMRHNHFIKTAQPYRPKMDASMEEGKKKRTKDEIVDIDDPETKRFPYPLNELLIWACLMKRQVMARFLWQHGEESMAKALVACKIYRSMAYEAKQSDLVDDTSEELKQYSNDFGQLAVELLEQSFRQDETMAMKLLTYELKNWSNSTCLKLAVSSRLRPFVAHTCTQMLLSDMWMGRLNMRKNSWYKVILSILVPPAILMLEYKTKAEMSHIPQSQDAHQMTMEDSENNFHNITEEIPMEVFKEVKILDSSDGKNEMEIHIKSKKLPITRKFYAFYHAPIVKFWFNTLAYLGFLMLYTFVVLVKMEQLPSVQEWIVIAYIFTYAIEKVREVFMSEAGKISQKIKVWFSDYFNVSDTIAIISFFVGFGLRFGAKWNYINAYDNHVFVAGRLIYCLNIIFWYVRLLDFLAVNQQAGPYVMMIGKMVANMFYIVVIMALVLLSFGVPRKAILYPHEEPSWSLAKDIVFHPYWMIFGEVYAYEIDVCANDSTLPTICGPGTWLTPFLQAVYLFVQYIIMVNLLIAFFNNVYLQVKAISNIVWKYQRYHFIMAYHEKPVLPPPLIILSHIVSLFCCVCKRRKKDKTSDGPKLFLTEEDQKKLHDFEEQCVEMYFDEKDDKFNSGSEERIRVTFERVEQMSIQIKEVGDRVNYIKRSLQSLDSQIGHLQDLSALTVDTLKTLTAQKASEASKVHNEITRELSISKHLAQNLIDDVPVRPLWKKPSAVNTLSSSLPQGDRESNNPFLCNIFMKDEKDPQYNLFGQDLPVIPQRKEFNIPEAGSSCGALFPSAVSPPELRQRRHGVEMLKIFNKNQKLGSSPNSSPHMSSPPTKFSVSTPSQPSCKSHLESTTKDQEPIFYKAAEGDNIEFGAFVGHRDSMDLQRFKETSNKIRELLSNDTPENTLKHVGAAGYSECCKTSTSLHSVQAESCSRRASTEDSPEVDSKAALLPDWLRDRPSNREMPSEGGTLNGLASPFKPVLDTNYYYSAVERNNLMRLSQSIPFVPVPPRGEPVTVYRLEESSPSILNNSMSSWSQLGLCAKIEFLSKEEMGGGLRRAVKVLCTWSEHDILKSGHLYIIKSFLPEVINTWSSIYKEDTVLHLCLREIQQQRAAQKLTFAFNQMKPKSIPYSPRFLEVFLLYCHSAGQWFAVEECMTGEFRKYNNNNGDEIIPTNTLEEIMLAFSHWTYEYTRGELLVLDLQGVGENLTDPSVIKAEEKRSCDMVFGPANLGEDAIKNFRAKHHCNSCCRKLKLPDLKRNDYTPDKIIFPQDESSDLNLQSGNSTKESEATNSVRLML
- experimental-details: Whole-cell voltage clamp of TRPM7 currents in cultured hippocampal neurons (low divalent cation-induced or compound-activated)
- conditions-used: current evoked by 0.1 mM Ca2+ and 0.1 mM Mg2+; -60 mV; acutely applied; read-out: IC50, block of TRPM7 current
readout-label: pIC50
Please express pIC50 as -log10 of the molar concentration.

compound_structure=N=C(N)c1ccc(-c2cc3ccc(C(=N)N)cc3[nH]2)cc1 assay_result=4.42

Would you kindly look at the next entry?
Inquiry: Using the record for `N=C(N)c1ccc2cc(OC(=O)c3ccc(N=C(N)N)cc3)ccc2c1` , report its pIC50.
Reply text: 4.57

---

- target-or-system: wild-type (WT) human TRPM7 (Homo sapiens)
- Construct: expressed in transfected cells; host or cells: HEK293T
- experimental-details: Whole-cell recording of recombinant TRPM7 currents in transfected HEK293T cells (voltage ramps)
- Type: cell-based
- conditions-used: +100 mV; 0.1 mM Ca2+ and 0.1 mM Mg2+; read-out: IC50, inhibition of outward TRPM7 current
readout-label: IC50 (µM)
Write the number in µM without appending the unit.

Inquiry: Using the record for `N=C(N)c1ccc2cc(OC(=O)c3ccc(N=C(N)N)cc3)ccc2c1` , report its IC50.
Reply text: 617
